These records show pIC50 for Protein disulfide-isomerase (Bos taurus) (UniProt P05307).
pIC50: −log10 of the molar value.
test_readout: pIC50

[P] C#CCNC(=O)[C@H](Cc1ccc(OS(=O)(=O)C=C)cc1)NC(=O)c1ccc(CC)cc1 [PDI inhibitor P15]
[Q] C#CCNC(=O)[C@H](Cc1ccc(OS(=O)(=O)C=C)cc1)NC(=O)CCc1ccc(OC)cc1 [PDI inhibitor P17]
Req: // which entry reports the smaller pIC50, P or Q ? Pick one and reply with its label.
Resp: Q

[a] C#CCCNC(=O)[C@H](Cc1ccc(OS(=O)(=O)C=C)cc1)NC(=O)[C@H](Cc1ccccc1)NC(=O)OC(C)(C)C [PDI inhibitor P1]
[b] C#CCNC(=O)[C@H](Cc1ccc(OS(=O)(=O)C=C)cc1)NC(=O)c1ccc(F)c(C(F)(F)F)c1 [PDI inhibitor P14]
[c] C#CCNC(=O)[C@H](Cc1ccc(OS(=O)(=O)C=C)cc1)NC(=O)c1cc(OC)c(OC)cc1Br [PDI inhibitor P25]
Req: Order each entry by recorded pIC50, climbing from the minimum. Respond with the label ranking, as requested.
Resp: c, a, b

[a] C#CCCNC(=O)[C@H](Cc1cc(=O)oc2cc(OS(=O)(=O)C=C)ccc12)NC(=O)[C@H](Cc1ccccc1)NC(=O)OC(C)(C)C [PDI inhibitor P2]
[b] C#CCNC(=O)[C@H](Cc1ccc(OS(=O)(=O)C=C)cc1)NC(=O)c1ccc(OC)cc1 [PDI inhibitor P9]
[c] C#CCNC(=O)[C@H](Cc1ccc(OS(=O)(=O)C=C)cc1)NC(=O)C(C)(C)CC [PDI inhibitor P12]
Req: Please list these compounds in decreasing order of pIC50. Respond with the label ranking, as requested.
Resp: a, c, b
(a: 5.74, c: 5.49, b: 5.28)

----------
# target_system: Protein disulfide-isomerase (Bos taurus) (UniProt P05307)
# Sequence (P05307 whole entry, looked up): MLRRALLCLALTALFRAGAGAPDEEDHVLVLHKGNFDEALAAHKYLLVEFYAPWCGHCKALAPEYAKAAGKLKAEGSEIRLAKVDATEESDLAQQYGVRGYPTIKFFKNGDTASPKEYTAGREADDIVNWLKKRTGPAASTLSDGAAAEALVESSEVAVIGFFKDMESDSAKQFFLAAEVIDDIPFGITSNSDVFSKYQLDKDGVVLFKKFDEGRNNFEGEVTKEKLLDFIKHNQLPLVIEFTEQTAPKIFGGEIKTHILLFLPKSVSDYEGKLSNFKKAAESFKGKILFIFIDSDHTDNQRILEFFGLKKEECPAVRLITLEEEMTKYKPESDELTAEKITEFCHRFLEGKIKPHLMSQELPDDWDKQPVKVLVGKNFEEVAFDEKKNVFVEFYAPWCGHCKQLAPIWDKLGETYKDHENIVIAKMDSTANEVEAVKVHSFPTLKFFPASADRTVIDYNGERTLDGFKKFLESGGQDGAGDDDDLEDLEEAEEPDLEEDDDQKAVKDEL
pIC50: −log10 of the molar value.
test_readout: pIC50

# compound, result_number
measured = [
    ("C#CCNC(=O)[C@H](Cc1ccc(OS(=O)(=O)C=C)cc1)NC(=O)C1(C)CCCCC1 [PDI inhibitor P16]", 5.64),
    ("C#CCNC(=O)[C@H](Cc1ccc(OS(=O)(=O)C=C)cc1)NC(=O)CCc1ccccc1 [PDI inhibitor P24]", 5.66),
    ("C#CCNC(=O)[C@H](Cc1ccc(OS(=O)(=O)C=C)cc1)NC(=O)C(=O)c1ccccc1 [PDI inhibitor P23]", 5.74),
    ("C#CCNC(=O)[C@H](Cc1ccc(OS(=O)(=O)C=C)cc1)NC(=O)[C@H](Cc1ccccc1)NC(=O)OC(C)(C)C [PDI inhibitor P6]", 5.72),
]

Each recorded value in this set is attributed to BindingDB's records for doi:10.1021/cb4002602.
